- targetEntity: T1, SEZ6 Sushi Domain 1 (amino acids 336-395) on yeast (human, UniProt Q53EL9 355-414)
- T1 construct: yeast display
- T1 sequence (Q53EL9 355-414): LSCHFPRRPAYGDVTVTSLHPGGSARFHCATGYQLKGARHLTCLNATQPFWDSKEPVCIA
- testMethodNotes: yeast display, flow cytometry;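 also: antibody binding to individual SEZ6 domains displayed on yeast, measured by flow cytometry, antibody at 50 nM purified or hybridoma supernatant diluted 1:2, 90 min on ice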
observationType: binding result

* SC17.87 (antibody, V domains shown, murine mAb) VH: EVQLQQSGAELLKPGASVKLSCTASGLNIKDYYIHWVYQRPEQGLEWIGRIDPESDNTLYDPKFQGKASITADTSSNTAYLQLSSLTSEDTAVYYCTTNTPFAYWGQGTLVTVST VL: DVVMTQTPLSLPVSLGDQASISCRSSQSLVHSNGNTYLHWYLQKPGQSPKLLISKVSNRFSGVPDRFSGSGSGTDFTLKISRVEAEDLGVYFCSQSTHVPPMFGGGTRLEIK | binds
* SC17.46 (antibody, V domains shown, murine mAb) VH: QVQLQQPGAELVKPGASMKLSCKASGYTFTSYWINWVKQRPGQGLEWIGNIFPDTTTTNYNEKFKSKATLTVDTSSSTAYMQLSSLTSDDSAVYYCAREYYDGTYDAMDYWGQGTSVTV VL: SFVMTQTPKFLLVSAGDRVTITCKASQSVNNDVAWYQQKPGQSPKLLIYYASNRYTGVPDRFTGSGYGTDFTFTISTVQAEDLAVYFCQQDYSSPRTFGGGTKLEIK | binds
